system: HeLa; assay: Cytotoxicity against human HeLa cells assessed as reduction in cell viability incubated for 48 hrs by MTT assay; format: functional, cell-based
parameter-measured: IC50

State, in one line, measured IC50 of `COc1ccc(S(=O)(=O)N2CCN(C(=O)c3cn(Cc4cccc(Oc5ccccc5)c4)nn3)CC2)cc1`
3.72 µM

Output measured IC50 for this item: `CC(C)(C)c1ccc(S(=O)(=O)N2CCN(C(=O)c3cn(Cc4ccc(F)cc4)nn3)CC2)cc1`
> 30 µM

Indicate the recorded IC50 value for this compound: `O=C(c1cn(Cc2ccc(F)cc2)nn1)N1CCN(S(=O)(=O)c2ccc(Br)cc2)CC1`
> 30 µM

Further cases:
Specify reported IC50 for the compound shown: `COc1ccc(S(=O)(=O)N2CCN(C(=O)c3cn(Cc4cccc(OC)c4)nn3)CC2)cc1`
> 30 µM

Write down IC50 measured for item `COc1ccc(S(=O)(=O)N2CCN(C(=O)c3cn(Cc4ccc(F)cc4)nn3)CC2)cc1`
> 30 µM

Using known records, supply IC50 for `O=C(c1cn(Cc2ccccc2)nn1)N1CCN(S(=O)(=O)c2ccc(Cl)cc2)CC1`
> 30 µM

Answer with the recorded IC50 for the compound listed here: `COc1ccc(S(=O)(=O)N2CCN(C(=O)c3cn(Cc4ccccc4)nn3)CC2)cc1`
> 30 µM

Fill in reported IC50 for this entry: `O=C(c1cn(Cc2ccc(I)cc2)nn1)N1CCN(S(=O)(=O)c2ccc(Br)cc2)CC1`
6.52 µM

Provide measured IC50 value, entry: `CC(C)(C)c1ccc(S(=O)(=O)N2CCN(C(=O)c3cn(Cc4cccc(Oc5ccccc5)c4)nn3)CC2)cc1`
3.7 µM

Look up and report measured IC50 for this entry: `O=C(c1cn(Cc2ccc(F)cc2)nn1)N1CCN(S(=O)(=O)c2ccccc2)CC1`
> 30 µM

Write down IC50 measured for item `O=C(c1cn(Cc2cccc(Oc3ccccc3)c2)nn1)N1CCN(S(=O)(=O)c2ccccc2)CC1`
> 30 µM

Give IC50 for `O=C(c1cn(Cc2cccc(Oc3ccccc3)c2)nn1)N1CCN(S(=O)(=O)c2ccc(Cl)cc2)CC1`
8.61 µM

Return the recorded IC50 value; entry: `COc1cccc(Cn2cc(C(=O)N3CCN(S(=O)(=O)c4ccccc4)CC3)nn2)c1`
> 30 µM

Read off the recorded IC50 for `COc1cccc(Cn2cc(C(=O)N3CCN(S(=O)(=O)c4ccc(Cl)cc4)CC3)nn2)c1`
> 30 µM

Given the compound `CC(C)(C)c1ccc(S(=O)(=O)N2CCN(C(=O)c3cn(Cc4ccccc4)nn3)CC2)cc1` , write its reported IC50.
> 30 µM

Read the entry `COc1ccc(S(=O)(=O)N2CCN(C(=O)c3cn(Cc4ccc(I)cc4)nn3)CC2)cc1` and write its reported IC50.
> 30 µM

Note down IC50 recorded for `O=C(c1cn(Cc2ccc(I)cc2)nn1)N1CCN(S(=O)(=O)c2ccc(Cl)cc2)CC1`
5.74 µM

Determine from records and report IC50 for `O=C(c1cn(Cc2ccc(F)cc2)nn1)N1CCN(S(=O)(=O)c2ccc(Cl)cc2)CC1`
> 30 µM

Consider the compound `O=C(c1cn(Cc2ccccc2)nn1)N1CCN(S(=O)(=O)c2ccccc2)CC1` and give its recorded IC50.
> 30 µM

Give the value of IC50 reported for the following: `COc1cccc(Cn2cc(C(=O)N3CCN(S(=O)(=O)c4ccc(Br)cc4)CC3)nn2)c1`
> 30 µM

Let me know recorded IC50 for `O=C(c1cn(Cc2cccc(Oc3ccccc3)c2)nn1)N1CCN(S(=O)(=O)c2ccc(Br)cc2)CC1` , thanks.
1.02 µM

Tell me IC50 reported for `Cc1ccc(S(=O)(=O)N2CCN(C(=O)c3cn(Cc4ccccc4)nn3)CC2)cc1`
> 30 µM
